# TEST_NAME: Toxicity in amphetamine-induced ip dosed Crl:COBS-CD-1(ICR)BR mouse assessed as lethality
# Type: organism-based
# CONDITION_LABEL: in vivo
OBSERVATION_TYPE: LD50 (mg/kg)

>  <COMPOUND>
CC(C)(C)[C@@]1(O)CCN2C[C@@H]3c4ccccc4CCc4cccc(c43)[C@H]2C1

>  <OBSERVATION_TYPE>
LD50

>  <CENSORING_QUALIFIER>
>

>  <EXPERIMENTAL_RESULT>
320

$$$$
>  <COMPOUND>
CC(C)(C)C1(O)CCN(CC2c3ccccc3CCc3ccc(Br)cc32)CC1.Cl (centres undefined)

>  <OBSERVATION_TYPE>
LD50

>  <CENSORING_QUALIFIER>
=

>  <EXPERIMENTAL_RESULT>
180

$$$$
>  <COMPOUND>
CC(C)(C)C1(O)CCN(CC2c3ccccc3Oc3ccccc32)CC1.Cl

>  <OBSERVATION_TYPE>
LD50

>  <CENSORING_QUALIFIER>
=

>  <EXPERIMENTAL_RESULT>
160

$$$$
>  <COMPOUND>
CN1CCN(C2=Nc3cc(Cl)ccc3Nc3ccccc32)CC1

>  <OBSERVATION_TYPE>
LD50

>  <CENSORING_QUALIFIER>
=

>  <EXPERIMENTAL_RESULT>
160

$$$$

* * *

# TEST_NAME: Displacement of [3H]-dopamine from dopamine receptor in calf caudate nucleus after 10 mins by liquid scintillation counting analysis
# Parameters: species or system Bos taurus
pIC50: −log10 of the molar value.
Label rule, in plain words: pIC50 of 5 and up is 1, under 5 is 0.

>  <COMPOUND>
CC(C)(C)C1(O)CCN(CC2c3ccccc3Sc3ccccc32)CC1.Cl

>  <GROUP_LABEL>
1

$$$$
>  <COMPOUND>
O=C1CCN(CC(c2ccccc2)c2ccccc2)CC1C1(O)CCN(CC(c2ccccc2)c2ccccc2)CC1 (stereo unspecified)

>  <GROUP_LABEL>
0

$$$$
>  <COMPOUND>
CC(C)(C)[C@]1(O)CCN2C[C@@H](c3ccccc3)c3ccccc3[C@@H]2C1

>  <GROUP_LABEL>
0

$$$$
>  <COMPOUND>
OC1CCN(CC(c2ccccc2)c2ccccc2)CC1C1(O)CCN(CC(c2ccccc2)c2ccccc2)CC1 (stereo unspecified)

>  <GROUP_LABEL>
0

$$$$
>  <COMPOUND>
CC(C)(C)C1(O)CCN(CC2c3ccccc3CCc3ccccc32)CC1

>  <GROUP_LABEL>
0

$$$$
>  <COMPOUND>
CC(C)(C)C1(O)CCN(CC2c3ccccc3Oc3ccccc32)CC1.Cl

>  <GROUP_LABEL>
0

$$$$
>  <COMPOUND>
CC(C)(C)C1(O)CCN(CC(c2ccccc2)c2ccccc2)CC1

>  <GROUP_LABEL>
1

$$$$
>  <COMPOUND>
CC(C)(C)C1(O)CCN(CC2c3ccccc3CCc3cc(Cl)ccc32)CC1.Cl (stereo unspecified)

>  <GROUP_LABEL>
1

$$$$
>  <COMPOUND>
CC(C)(C)C1(O)CCN(CC2c3ccccc3CCc3ccc(Br)cc32)CC1.Cl (stereo unspecified)

>  <GROUP_LABEL>
1

$$$$
>  <COMPOUND>
CC(C)(C)[C@@]1(O)CCN2C[C@@H]3c4ccccc4CCc4cccc(c43)[C@H]2C1

>  <GROUP_LABEL>
1

$$$$
